# System: A549 NSCLC
# protocol: NCI tumour cell line growth inhibition, 48 h
Below is a list of entries, each paired with its recorded TGI value.
quantity kind: TGI

{"columns": ["compound structure string", "system name", "recorded result"],
 "data": [
  ["COc1ccc(OCC(=O)O)c2c1CCCC2=O", "A549 NSCLC", "> 100 µM"],
  ["O=C(O)CN1CCN2CCCCCN(CC1)CCN(CC(=O)O)CC2", "A549 NSCLC", "> 100 µM"],
  ["Cc1nc(Nc2cccnc2)sc1C(=O)/C=C/c1ccc(F)cc1", "A549 NSCLC", "> 100 µM"],
  ["NCCCN1c2ccccc2Sc2ccc(Cl)cc21", "A549 NSCLC", "> 10 µM"],
  ["CC1=Cc2cccc(C)c2C(=O)C1=O", "A549 NSCLC", "25.1 µM"],
  ["CCOc1ccc(/C=C2\\N=C(c3ccc([N+](=O)[O-])cc3)OC2=O)cc1", "A549 NSCLC", "> 100 µM"],
  ["N#CC(C#N)=C1SC(=Nc2ccccc2)C(=Nc2ccccc2)N1c1ccccc1", "A549 NSCLC", "> 100 µM"],
  ["COc1ccc(-c2nc(SCC(=O)NNC(=S)Nc3ccccc3)[nH]c2-c2ccc(OC)cc2)cc1", "A549 NSCLC", "> 100 µM"],
  ["CSC1=N/C(=C\\c2ccc(C)cc2)C(=O)N1CN1CCCCC1", "A549 NSCLC", "> 100 µM"],
  ["Cc1nnc(Nc2ccc(NC(=O)Nc3ccc(Cl)cc3)cc2)c2ccccc12", "A549 NSCLC", "8.59 µM"],
  ["CSc1cc(-c2cccs2)sc1-c1cc(SC)c(-c2sc(-c3sc(-c4cccs4)cc3SC)cc2SC)s1", "A549 NSCLC", "> 100 µM"]
]}

Just for reference, PubChem BioAssay (NCI) is where these values come from.
